growth inhibition values, listed per item
Assay: NCI Yeast Anticancer Drug Screen. Data for the sgs1 mgt1 strain (AID 161);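 further: 0% = growth of cultures given vehicle only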
Settings: S. cerevisiae sgs1 mgt1 strain, at 50.0 µM, stronger effect = higher value
Compounds without any hit were thinned out: in the full panel of roughly 79,000, 15% have a hit.
The answer is to be given in %; state only the numeric part.

molecule: CN(C)c1ccc2c(c1[N+](=O)[O-])Cc1ccccc1-2
unit_annotation: %
quantitative_result: 6.75
//
molecule: C=CCC(OC(=O)CC)c1ccc2c(c1)OCO2 (stereo not drawn)
unit_annotation: %
quantitative_result: 5
//
molecule: Clc1ccccc1/C=N/N=C/c1ccccc1Cl
unit_annotation: %
quantitative_result: -9.05
//
molecule: CSCCC(NC(C)=O)C(=O)O (stereo not drawn)
unit_annotation: %
quantitative_result: -14.4

Quick check: growth inhibition of CC1=NN(c2cc(Cl)c(S(=O)(=O)O)cc2Cl)C(=O)C1N=Nc1ccc(S(=O)(=O)O)cc1 (stereo not drawn) ? -8

Find the recorded growth inhibition belonging to Cc1noc2c1NC(=O)OCC2 and report it. -3.85

Suppose we examine the molecule Oc1cccc2nc3ccccc3cc12 ; what growth inhibition value has been reported? 16.2

Tell me the measured growth inhibition of [Fe+2].[NH-]C(Cc1ccc(O)cc1)C(=O)O.[NH-]C(Cc1ccc(O)cc1)C(=O)O (stereo not drawn) , please. 24.1

Look up growth inhibition: CN(C)/C(=N/C(=O)Nc1ccccc1)SCc1ccccc1 0.45

Where these numbers come from: PubChem BioAssay (NCI)
